B1: RHOBTB3 (parent)
chain: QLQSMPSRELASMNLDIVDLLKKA

Variants of: B1
ASSAY REMARKS: protein stability index of a GFP-peptide fusion (GPS, HEK-293T) (PSI 1-6); higher = more stable;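 note: lentivirally expressed fusions sorted by FACS into six bins by GFP to DsRed ratio, PSI derived from sequencing read proportions per bin multiplied by bin number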
TEST CONDITIONS: c terminus: a fixed tail appended
EXPERIMENTAL READOUT: protein stability index

# VARIANT, MEASURED NUMBER
rows = [
    ("S12P", 4.11),
    ("R8W", 2.58),
    ("M13E", 4.19),
    ("S12R", 2.13),
    ("Q3R", 4.02),
    ("L10P", 3.83),
    ("Q1Y", 2.98),
]
